Origin of the recorded values: paper PMC5613217

Listing of entries alongside the reported IC50.
- Study target: UniProt P9WNC1
- Sequence (P9WNC1 1-255): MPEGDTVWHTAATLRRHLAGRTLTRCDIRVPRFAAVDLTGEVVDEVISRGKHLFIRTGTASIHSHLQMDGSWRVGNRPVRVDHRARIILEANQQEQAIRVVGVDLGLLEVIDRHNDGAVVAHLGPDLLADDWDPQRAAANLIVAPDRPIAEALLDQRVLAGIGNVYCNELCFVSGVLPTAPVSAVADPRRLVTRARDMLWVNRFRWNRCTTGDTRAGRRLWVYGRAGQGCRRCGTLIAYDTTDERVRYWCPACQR
- Assay overview: In vitro inhibition of Uracil DNA glycosylase activity of MtbNei2
- Type: biochemical

Structure smiles string	Unit abbrev	IC50
COc1c2c(cc3c1[C@@H]1Oc4c(ccc(O)c4CC=C(C)C)[C@@H]1CO3)OC(C)(C)C=C2	µM	76.2
C[C@H]1Oc2cc3c(-c4c(O)cc(O)c5c(O)c6c(cc45)O[C@H](C)[C@@H](C)C6=O)c(O)cc(O)c3c(O)c2C(=O)[C@@H]1C	µM	92.7
